In this section, each of the molecules is paired with its reported growth inhibition.
Assay: inhibition of 3D7 malaria parasite growth – strain 3D7 (AID 2306);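 also: 0% = DMSO wells and 100% = chloroquine plus artemisinin control wells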
Details: P. falciparum 3D7 erythrocytic growth, LDH absorbance, 72 h; at 2 µM; active compounds read high
Activity calls are given as the source filed them. No rule for the calls is given here.

{"columns": ["Molecule", "growth inhibition"],
 "data": [
  ["C[C@@H]1CN(c2cnn(Cc3cccc(NC(=O)Nc4ccc(F)cc4[N+](=O)[O-])c3)c(=O)c2Cl)C[C@H](C)N1", "91% (active)"],
  ["CC(C)NCc1ccc(-c2cccc(NC(=O)c3cccc(Cl)c3)c2)cc1", "100% (active)"]
]}

Shift focus to the following entry.
Asked: Entry under review: CN1CCN(c2ccc(Cl)cc2NC(=O)C2COc3ccccc3O2)CC1 (stereo not drawn) . Reported growth inhibition?
Given back: 99% (active)

----------
Experiment: HepG2 cytotoxicity, primary screen, cytotoxicity control for P. falciparum antimalarial project, cell-based, ATP luminescence (AID 2303);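 also: 0% = DMSO wells and 100% = digitonin-killed cells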
Conditions: HepG2 viability, 24-48 h, at 10 µM, active compounds read high
Recorded inhibition by entry
// units = %; emit number, no label

Below, 6 compounds whose answers are already recorded.
{"columns": ["Compound", "Value reported"],
 "data": [
  ["CN(Cc1cccc(O)c1)C1CCN(c2cc(NC(=O)c3ccc(F)cc3)ccn2)CC1", 24],
  ["CCOc1cc(C(=O)NCc2cc(Cl)cc(Cl)c2)ccc1-c1nc2ccc(Cl)cc2[nH]1", 1],
  ["CC1(C)C[C@@H]2C[C@@](C)(CN2C(=O)c2cc(C(C)(C)C)nn2Cc2ccccc2)C1", -3],
  ["Cc1ccc(Oc2cnn(C)c(=O)c2Nc2cccc(C(=O)NCCc3ccccn3)c2)c(C)c1", 0],
  ["COc1cccc(-c2cc(C(F)(F)F)n3ncc(C(=O)Nc4cc(Cl)ccc4O)c3n2)c1", -9],
  ["Cc1cc(O)c(CN2CCN(Cc3cccs3)CC2)cc1C(C)C", 7]
]}

Asked: Param item = Cc1nc(-c2ccc(-c3ccc(C(=O)Nc4ccc(I)c(OCC5CCCN5C)c4)cc3)c(C)c2)no1 (stereo not given) ; retrieve measured inhibition.
Given back: 100

Asked: Requested field: inhibition. Item: COc1ccccc1/C=C/C(=O)N(C)C1CCN(CCCCCNC(=O)/C=C/c2ccc(Cl)c(Cl)c2)CC1
Given back: 71

Asked: Fill in the blank: the reported inhibition of O=C(NC1CC1)c1ccc(N2CCC(c3ccccc3)CC2)nc1 is ____.
Given back: 16

Asked: Please give the measured inhibition for this compound: COc1ccc(-c2cccc(CNC3CCN(C)CC3)c2)cc1S(=O)(=O)NCc1ccccc1
Given back: 18

Asked: Quick check: inhibition of O=C(Cc1cccnc1)N(Cc1ccc(-c2ccc(CNCc3cccnc3)cn2)cc1)C1CCN(Cc2ccccc2)CC1 ?
Given back: 8

Asked: Item under review: COc1ccc(Cl)cc1NC(=O)Nc1ccc2c(c1)CCN(C1CCC1)CC2 . Reported inhibition?
Given back: 38

Asked: Reported inhibition for Cc1ccccc1C1CCN(C2CCC(NC(=O)c3ccc(-c4cc(C(F)(F)F)nn4C)s3)CC2)CC1 (stereo not given) : what is it?
Given back: 42

Asked: Look up inhibition: CC(C)Cc1cn(-c2nc(C(=N)N)cs2)c2cc(Cl)ccc12
Given back: 98

----------
Assay: inhibition of 3D7 malaria parasite growth – strain 3D7 (AID 2306);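 also: 0% = DMSO wells and 100% = chloroquine plus artemisinin control wells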
Conditions: P. falciparum 3D7 erythrocytic growth, LDH absorbance, 72 h; at 2 µM; active compounds read high
growth inhibition overview
Report only the number, with the unit % understood.

Examples from the recorded data:
{"columns": ["Compound", "growth inhibition, %"],
 "data": [
  ["CC(C)NCc1ccc(-c2cccc(NC(=O)c3ccc(C#N)cc3)c2)cc1", 100],
  ["NC(=O)c1cccc(C(=O)Nc2ccc(-c3cccc(-c4nc5ccc(C(F)(F)F)cc5[nH]4)c3)cc2)c1", 100],
  ["COc1ccc2nccc(N3CCC(SCCNCc4ccc5c(n4)NC(=O)CS5)C3)c2n1 (configuration not stated)", 95],
  ["Cc1cc(N[C@@H](Cc2ccccc2)C(=O)NC2CCCC2)nc(NCc2ccccc2C)n1", 91],
  ["O=[N+]([O-])c1ccc(Oc2ccccc2CNCC2CCN(CC3CCCCC3)CC2)cc1", 89],
  ["CNc1c2c(nc3ccc(NC(=O)CCCCCCc4ccccc4)cc13)CCCC2", 100]
]}

Asked: I would be grateful if you could share the reported growth inhibition for C=Cc1c(C2CCN(CCCCNC(=O)c3ccc(-c4ccc(C#N)cc4)cc3)CC2)ccc2c1CCCC2 .
Given back: 94

Asked: Reported growth inhibition, compound CS(=O)(=O)c1ccc(-c2cnc(N)c(-c3cccc(O)c3)c2)cc1 : ____
Given back: 98

Asked: Reported growth inhibition, compound O=C(Nc1ccc(-c2nc3ccccc3[nH]2)cc1)c1cccc([N+](=O)[O-])c1 : ____
Given back: 101

Asked: Recorded growth inhibition for COc1ccc(Nc2nccc(-c3ccc4c(-c5ccsc5)cnc(N)c4c3)n2)cc1 , please?
Given back: 101

Asked: Give the measured growth inhibition of O=C(NCc1ccccc1)NC1CCN(c2ccnc3cc(Cl)ccc23)C1 (configuration not stated) .
Given back: 94

Asked: Please look up its growth inhibition: O=C(Nc1ccc2c(c1)CCN2C1CCN(Cc2cccc(F)c2F)C1)c1ccco1 (configuration not stated)
Given back: 87

Asked: So what does the record say about growth inhibition for CON=Cc1sc(CNCCCNc2cc(=O)c3ccccc3[nH]2)c(C)c1Br ?
Given back: 96

Asked: growth inhibition for COc1ccc(CC(=O)Nc2ccc(Nc3nc(C)cc(N(C)C)n3)cc2)cc1 ?
Given back: 97

Asked: Quick one: growth inhibition for COc1ccc(CN(C)Cc2cc(C(C)C)c(C)cc2O)cc1F ?
Given back: 98

Asked: growth inhibition for O=C(N[C@@H](Cc1ccccc1)C(=O)NCCN1CCCCC1)c1ccc(O)c(-c2cccc(C(F)(F)F)c2)c1 ?
Given back: 92

Asked: Item under review: O=C1CCCN1CCCNCc1cccc(-c2ccc(-c3nc4ccc(C(F)(F)F)cc4[nH]3)s2)c1 . Reported growth inhibition?
Given back: 100

Asked: Query: growth inhibition; subject: O=C(/C=C/c1ccc(Cl)c(Cl)c1)NCCCCCN1CCN(C(=O)Nc2ccc(Cl)c(C(F)(F)F)c2)CC1
Given back: 100

Asked: Recorded growth inhibition for CN1CCCc2ccc(NC(=O)Nc3ccc(Cl)c(Cl)c3)cc2C1 , please?
Given back: 89

Asked: I'd like to know its growth inhibition. The compound in question is COc1ccc2nccc([C@@H](O)CN3CCC(NCc4cc5c(F)ccc(F)c5[nH]4)CC3)c2c1
Given back: 100

Asked: Quick check: growth inhibition of COc1ccc(NC(=O)c2ccc(-c3nc(-c4ccc(Cl)cc4)cs3)cc2)cc1N1CCN(C)CC1 ?
Given back: 91

Asked: Need growth inhibition, item CCc1cn(C)c2c(N3CCCC3=O)cc(C(=O)N[C@@H](Cc3ccccc3)[C@H](O)CNCc3cccc(OC)c3)cc12
Given back: 96

Asked: Data request, read-out growth inhibition, for COc1ccccc1CNC(=O)c1cc(C2CC2)nc2c1cnn2C(C)C
Given back: 94

Asked: Bench note: what growth inhibition did COc1ccc(C(=O)CCc2ccc(O)cc2)cc1 show?
Given back: 96

Asked: I'd like to know its growth inhibition. The compound in question is COc1ccc2nccc(NCC3(O)CCC(NCc4cc5c(cn4)OCCO5)CC3)c2n1 (configuration not stated)
Given back: 99

Asked: Would you mind telling me what growth inhibition value was observed for COc1ccccc1-c1ccc(C(=O)NCC2CCCN(Cc3cccc(C(F)(F)F)c3)C2)s1 (configuration not stated) ?
Given back: 81

Asked: Tell me the measured growth inhibition of C=CCc1cc(Cc2cnc(N)nc2N)cc(CCC)c1OC , please.
Given back: 83

Asked: Return reported growth inhibition; argument: O=C(Nc1ccc(-c2ccccc2)cc1)Nc1ccc2c(c1)CCNCC2
Given back: 97

Asked: Any idea what growth inhibition was measured for C[C@@H](N=C(Nc1ccc(C#N)cc1O)Nc1ccccc1Cl)c1ccc(Br)cc1 ?
Given back: 98

Asked: Given O=C(/C=C/c1ccc(Cl)cc1)NCCCCCN1CCCN(C(=O)Nc2ccc(Cl)c(C(F)(F)F)c2)CC1 , state its recorded growth inhibition.
Given back: 95

Asked: Fill in: growth inhibition of CC(C)CNCc1cccc(-c2cccc(CN(CCN(C)C)C(=O)NCCc3ccccc3)c2)c1 is ___
Given back: 99

Asked: Would you kindly share the measured growth inhibition for Cc1ccc(NC(=O)Nc2ccc(Cl)cc2)cc1-c1cccc(C(=O)Nc2ccc(F)cc2)c1 ?
Given back: 96

Source: PubChem BioAssay
